# Test system: Talaromyces marneffei
# Test protocol: Antifungal activity against Penicillium marneffei after 48 hrs by broth microdilution
# Assay type: functional
Peptide text beside a SMILES is read from it.
Quantity: MIC50 (µg/mL)
// return numeric value only (unit: µg/mL, not printed)

Please state recorded MIC50 (tested on Talaromyces marneffei) of C[C@@H]1[C@H](O)[C@@H](C)/C=C/C=C/C=C/C=C/C=C/C=C/C=C/[C@H](O[C@@H]2O[C@H](C)[C@@H](O)[C@H](N)[C@@H]2O)C[C@@H]2O[C@](O)(C[C@@H](O)C[C@@H](O)[C@H](O)CC[C@@H](O)C[C@@H](O)CC(=O)O[C@H]1C)C[C@H](O)[C@H]2C(=O)O
0.25

Also CC[C@H](C)[C@H](N)C(=O)N[C@@H](CC(C)C)C(=O)N[C@@H](CCCNC(=N)N)C(=O)N[C@@H](Cc1c[nH]c2ccccc12)C(=O)N1CCC[C@H]1C(=O)N[C@@H](Cc1c[nH]c2ccccc12)C(=O)N[C@@H](Cc1c[nH]c2ccccc12)C(=O)N1CCC[C@H]1C(=O)N[C@@H](Cc1c[nH]c2ccccc12)C(=O)N[C@@H](CCCNC(=N)N)C(=O)N[C@@H](CCCNC(=N)N)C(=O)N[C@@H](CCCCN)C(N)=O.Cl.Cl.Cl.Cl.Cl [OMIGANAN PENTAHYDROCHLORIDE] (H-ILRWPWWPWRRK-NH2) , if possible.
64

Also CCC(C)n1ncn(-c2ccc(N3CCN(c4ccc(OCC5COC(Cn6cncn6)(c6ccc(Cl)cc6Cl)O5)cc4)CC3)cc2)c1=O (stereo unspecified) , if possible.
0.06

Also C[C@@H](c1ncncc1F)[C@](O)(Cn1cncn1)c1ccc(F)cc1F , if possible.
0.25

====

# Test system: Candida tropicalis
# Test protocol: Antifungal activity against Candida tropicalis assessed as resistant isolates after 48 hrs by broth microdilution
# Assay type: functional
Quantity: Activity (%)
// return numeric value only (unit: %, not printed)

Examples with answers:
C[C@@H](c1ncncc1F)[C@](O)(Cn1cncn1)c1ccc(F)cc1F [VORICONAZOLE] :: 27.3
Nc1nc(=O)[nH]cc1F [FLUCYTOSINE] :: 0
OC(Cn1cncn1)(Cn1cncn1)c1ccc(F)cc1F [FLUCONAZOLE] :: 18.2

Please state recorded Activity (tested on Candida tropicalis) of CCC(C)n1ncn(-c2ccc(N3CCN(c4ccc(OCC5COC(Cn6cncn6)(c6ccc(Cl)cc6Cl)O5)cc4)CC3)cc2)c1=O (centres undefined) [ITRACONAZOLE]
0

====

Items are presented alongside their recorded MIC90.
# Tested on: Aspergillus sp.
# Test protocol: Antifungal activity against Aspergillus sp. after 48 hrs by broth microdilution
# Type: functional
Peptide text beside a SMILES is read from it.
// return numeric value only (unit: µg/mL, not printed)

Examples with answers:
C[C@@H](c1ncncc1F)[C@](O)(Cn1cncn1)c1ccc(F)cc1F [VORICONAZOLE] :: 0.25
C[C@@H]1[C@H](O)[C@@H](C)/C=C/C=C/C=C/C=C/C=C/C=C/C=C/[C@H](O[C@@H]2O[C@H](C)[C@@H](O)[C@H](N)[C@@H]2O)C[C@@H]2O[C@](O)(C[C@@H](O)C[C@@H](O)[C@H](O)CC[C@@H](O)C[C@@H](O)CC(=O)O[C@H]1C)C[C@H](O)[C@H]2C(=O)O [AMPHOTERICIN B] :: 1
CCC(C)n1ncn(-c2ccc(N3CCN(c4ccc(OCC5COC(Cn6cncn6)(c6ccc(Cl)cc6Cl)O5)cc4)CC3)cc2)c1=O (stereo unspecified) [ITRACONAZOLE] :: 0.06

Consider the compound CC[C@H](C)[C@H](N)C(=O)N[C@@H](CC(C)C)C(=O)N[C@@H](CCCNC(=N)N)C(=O)N[C@@H](Cc1c[nH]c2ccccc12)C(=O)N1CCC[C@H]1C(=O)N[C@@H](Cc1c[nH]c2ccccc12)C(=O)N[C@@H](Cc1c[nH]c2ccccc12)C(=O)N1CCC[C@H]1C(=O)N[C@@H](Cc1c[nH]c2ccccc12)C(=O)N[C@@H](CCCNC(=N)N)C(=O)N[C@@H](CCCNC(=N)N)C(=O)N[C@@H](CCCCN)C(N)=O.Cl.Cl.Cl.Cl.Cl [OMIGANAN PENTAHYDROCHLORIDE] (H-ILRWPWWPWRRK-NH2) and give its measured MIC90.
1020

====

# Tested on: Nakaseomyces glabratus
# Test protocol: Antifungal activity against Candida glabrata assessed as susceptible isolates after 48 hrs by broth microdilution
# Assay type: functional
Quantity: Activity

Examples with answers:
Nc1nc(=O)[nH]cc1F :: 100%
OC(Cn1cncn1)(Cn1cncn1)c1ccc(F)cc1F :: 77.3%
C[C@@H](c1ncncc1F)[C@](O)(Cn1cncn1)c1ccc(F)cc1F :: 86.4%

Read the next record carefully.
Consider the compound CCC(C)n1ncn(-c2ccc(N3CCN(c4ccc(OCC5COC(Cn6cncn6)(c6ccc(Cl)cc6Cl)O5)cc4)CC3)cc2)c1=O (centres undefined) and give its measured Activity.
72.7%

====

# Test system: Candida albicans
# Test protocol: Antifungal activity against Candida albicans after 48 hrs by broth microdilution
# Assay type: functional
Peptide text beside a SMILES is read from it.
Quantity: MIC50 (µg/mL)
// return numeric value only (unit: µg/mL, not printed)

Examples with answers:
CC[C@H](C)[C@H](N)C(=O)N[C@@H](CC(C)C)C(=O)N[C@@H](CCCNC(=N)N)C(=O)N[C@@H](Cc1c[nH]c2ccccc12)C(=O)N1CCC[C@H]1C(=O)N[C@@H](Cc1c[nH]c2ccccc12)C(=O)N[C@@H](Cc1c[nH]c2ccccc12)C(=O)N1CCC[C@H]1C(=O)N[C@@H](Cc1c[nH]c2ccccc12)C(=O)N[C@@H](CCCNC(=N)N)C(=O)N[C@@H](CCCNC(=N)N)C(=O)N[C@@H](CCCCN)C(N)=O.Cl.Cl.Cl.Cl.Cl [OMIGANAN PENTAHYDROCHLORIDE] (H-ILRWPWWPWRRK-NH2) :: 64
Nc1nc(=O)[nH]cc1F [FLUCYTOSINE] :: 0.12

Read the next record carefully.
Consider the compound OC(Cn1cncn1)(Cn1cncn1)c1ccc(F)cc1F [FLUCONAZOLE] and give its measured MIC50.
1

====

# Tested on: Candida tropicalis
# Test protocol: Antifungal activity against Candida tropicalis assessed as susceptible isolates after 48 hrs by broth microdilution
# Type: functional
Items are presented alongside their recorded Activity.

Examples with answers:
Nc1nc(=O)[nH]cc1F :: 100%
C[C@@H](c1ncncc1F)[C@](O)(Cn1cncn1)c1ccc(F)cc1F :: 72.7%
CCC(C)n1ncn(-c2ccc(N3CCN(c4ccc(OCC5COC(Cn6cncn6)(c6ccc(Cl)cc6Cl)O5)cc4)CC3)cc2)c1=O (centres undefined) :: 100%

Read the next record carefully.
Consider the molecule OC(Cn1cncn1)(Cn1cncn1)c1ccc(F)cc1F and give its measured Activity.
81.8%

Just for reference, ChEMBL document CHEMBL1255262 is where these values come from.
